Molecular target: Amine oxidase [flavin-containing] B (Homo sapiens, UniProt P27338)
Sequence (P27338 whole entry): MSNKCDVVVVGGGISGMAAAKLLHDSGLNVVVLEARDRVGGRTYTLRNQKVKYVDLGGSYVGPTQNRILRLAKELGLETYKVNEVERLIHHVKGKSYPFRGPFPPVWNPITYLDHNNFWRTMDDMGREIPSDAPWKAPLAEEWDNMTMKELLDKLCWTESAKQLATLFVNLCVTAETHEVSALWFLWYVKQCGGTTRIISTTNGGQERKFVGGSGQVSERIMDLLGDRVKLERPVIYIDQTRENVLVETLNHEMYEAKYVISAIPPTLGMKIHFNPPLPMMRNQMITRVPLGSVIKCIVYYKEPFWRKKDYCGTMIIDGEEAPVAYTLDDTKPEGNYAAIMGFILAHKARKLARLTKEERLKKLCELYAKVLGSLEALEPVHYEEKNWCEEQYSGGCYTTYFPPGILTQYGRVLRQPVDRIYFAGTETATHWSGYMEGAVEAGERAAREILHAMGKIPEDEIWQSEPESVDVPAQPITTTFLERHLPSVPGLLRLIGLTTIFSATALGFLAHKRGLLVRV
Experiment: biochemical
Description: Inhibition of recombinant human MAO-B expressed in baculovirus infected BTI insect cells using p-tyramine as substrate pretreated for 15 mins followed by substrate addition after 20 mins by Amplex red reagent based fluorimetric method
PROPERTY_NAME: pIC50
Friendly reminder that pIC50 comes from taking -log10 of the concentration in mol/L.

Task: Return reported pIC50; argument: `Cc1ccc(/N=C/c2coc3ccc(C)cc3c2=O)c(O)c1`
Output: 4.67

Task: Form field: reported pIC50 of `O=c1c(/C=N/c2ccc(Cl)cc2O)coc2ccc(Br)cc12`
Output: 5.89

Task: What value of pIC50 has been recorded for this entry: `O=c1c(/C=N/c2ncccc2O)coc2ccc(Br)cc12`
Output: 5.53

Task: What value of pIC50 has been recorded for this entry: `Cc1ccc(O)c(/N=C/c2coc3ccc(C)cc3c2=O)c1`
Output: 6.09

Task: For the compound `O=c1c(/C=N/c2cccc(Cl)c2O)coc2ccccc12` , what pIC50 is on record?
Output: 4.84

Task: Recorded pIC50 for `O=c1c(/C=N/c2ccccc2O)coc2ccccc12` , please?
Output: 4.50

Task: Give the measured pIC50 of `Cc1ccc(O)c(/N=C/c2coc3ccccc3c2=O)c1` .
Output: 5.95

Task: Item `O=c1c(/C=N/c2cc3ccccc3cc2O)coc2ccccc12` has what recorded pIC50?
Output: 5.19

###

Below, each entry is listed with its recorded inhibition.
Target: UniProt:P05067
Sequence (P05067 whole entry): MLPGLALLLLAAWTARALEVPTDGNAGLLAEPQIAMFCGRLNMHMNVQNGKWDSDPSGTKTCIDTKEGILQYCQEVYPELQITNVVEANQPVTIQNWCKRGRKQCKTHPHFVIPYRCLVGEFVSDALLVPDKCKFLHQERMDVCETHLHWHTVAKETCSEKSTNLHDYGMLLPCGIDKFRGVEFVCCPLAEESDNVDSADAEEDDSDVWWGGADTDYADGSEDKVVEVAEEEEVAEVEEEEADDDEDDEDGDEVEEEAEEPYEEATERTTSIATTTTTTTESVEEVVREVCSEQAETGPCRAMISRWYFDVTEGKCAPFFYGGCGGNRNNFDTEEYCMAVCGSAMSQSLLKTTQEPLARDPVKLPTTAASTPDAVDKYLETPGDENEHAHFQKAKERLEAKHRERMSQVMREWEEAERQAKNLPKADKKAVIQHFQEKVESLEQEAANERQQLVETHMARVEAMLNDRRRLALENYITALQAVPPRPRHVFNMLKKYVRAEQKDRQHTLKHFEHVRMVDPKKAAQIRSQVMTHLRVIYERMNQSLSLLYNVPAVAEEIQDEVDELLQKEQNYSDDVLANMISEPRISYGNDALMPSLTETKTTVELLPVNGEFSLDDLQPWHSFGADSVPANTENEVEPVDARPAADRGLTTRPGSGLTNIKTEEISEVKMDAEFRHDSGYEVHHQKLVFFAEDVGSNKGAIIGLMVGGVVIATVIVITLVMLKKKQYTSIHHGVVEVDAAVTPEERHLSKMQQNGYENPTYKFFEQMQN
Assay: Inhibition of HFIP-pretreated amyloid beta (1 to 42) (unknown origin) self-induced aggregation at 20 uM after 46 to 48 hrs by thioflavin-T fluorescence assay relative to control
Give the quantity in %, number only.

Examples with answers:
> print(dat)
                         substance.smiles  endpoint.result
1          Oc1ccc(/C=C/c2cc(O)cc(O)c2)cc1             57.2
2  O=c1c(/C=N/c2cc3ccccc3cc2O)coc2ccccc12             66.5
3    O=c1c(/C=N/c2cc(Cl)ccc2O)coc2ccccc12             68.1
4    O=c1c(/C=N/c2cccc(Cl)c2O)coc2ccccc12             79.5
5     Cc1ccc2occ(/C=N/c3ncccc3O)c(=O)c2c1             63.4

Task: Consider the compound `Cc1ccc(O)c(/N=C/c2coc3ccc(C)cc3c2=O)c1` and give its measured inhibition.
Output: 75.1

Task: Field request: inhibition | item: `Cc1ccc(/N=C/c2coc3ccccc3c2=O)c(O)c1`
Output: 75.2

Task: Which inhibition is reported for this compound? `O=c1c(/C=N/c2ccc(Cl)cc2O)coc2ccccc12`
Output: 51.5

Task: Can you share its inhibition? I mean this compound: `Cc1ccc2occ(/C=N/c3cc(Cl)ccc3O)c(=O)c2c1`
Output: 71.9

Task: Name the reported inhibition value associated with the compound `O=c1c(/C=N/c2cc(F)ccc2O)coc2ccc(Br)cc12`
Output: 79.1

Task: Item `O=c1c(/C=N/c2ccc(Cl)cc2O)coc2ccc(Br)cc12` has what recorded inhibition?
Output: 87.6

Task: State the recorded inhibition for this entry: `O=c1c(/C=N/c2cccc(Cl)c2O)coc2ccc(Br)cc12`
Output: 68.1

Where do these numbers come from? They come from ChEMBL document CHEMBL4052647.
